# assayed_system: HLA-A*0203 (human)
# protocol_text: inhibition of 125I probe peptide binding to purified HLA
readout_type: pIC50
The value called pIC50 is obtained by taking minus log10 of the concentration in mol/L.

1. FLLFFWLDRSV [Peptide 63.0138 FLLFFWLDRSV (PAP.20)]: 8.55

Query block: Name the recorded pIC50 for LLLARAASLSL [Peptide 63.0136 LLLARAASLSL (PAP.6)] .
Result block: 8.28
